Test system: IMR-90 SnC (irradiated senescent IMR90 cells)
Measurement protocol: Senolysis assay (CellTiter-Glo viability)
Format: cell-based, human
Details: Homo sapiens, IMR-90, light or radiation study, 72 h; X-ray irradiated senescent IMR90 cells, viability three days after compound addition

- Compound: "CCOP(=O)(CN1CCN(CC[C@H](C[S+]([O-])c2ccccc2)Nc2ccc(S(=O)(=O)NC(=O)c3ccc(N4CCN(CC5=C(c6ccc(Cl)cc6)CCC(C)(C)C5)CC4)cc3)cc2S(=O)(=O)C(F)(F)F)CC1)OCC (stereo partly drawn) [Compound 44]"
  EC50: "1 to 10 µM"
- Compound: "CCOP(=O)(CCCN1CCN(CC[C@H](CSc2ccccc2)Nc2ccc(S(=O)(=O)NC(=O)c3ccc(N4CCN(CC5=C(c6ccc(Cl)cc6)CCC(C)(C)C5)CC4)cc3)cc2S(=O)(=O)C(F)(F)F)CC1)OCOC(=O)C(C)(C)C (stereo partly drawn) [Compound 33]"
  EC50: "> 10 µM"
- Compound: "CC(C)OP(=O)(CN1CCN(CC[C@H](CSc2ccccc2)Nc2ccc(S(=O)(=O)NC(=O)c3ccc(N4CCN(CC5=C(c6ccc(Cl)cc6)CCC(C)(C)C5)CC4)cc3)cc2S(=O)(=O)C(F)(F)F)CC1)OC(C)C [Compound 15]"
  EC50: "1 to 10 µM"
- Compound: "CC1(C)CCC(c2ccc(Cl)cc2)=C(CN2CCN(c3ccc(C(=O)NS(=O)(=O)c4ccc(N[C@H](CCN5CCC(CP(=O)(O)O)CC5)CSc5ccccc5)c(S(=O)(=O)C(F)(F)F)c4)cc3)CC2)C1 [Compound 47]"
  EC50: "> 10 µM"
- Compound: "CCOP(=O)(CC1CCN(CC[C@H](CSc2ccccc2)Nc2ccc(S(=O)(=O)NC(=O)c3ccc(N4CCN(CC5=C(c6ccc(Cl)cc6)CCC(C)(C)C5)CC4)cc3)cc2S(=O)(=O)C(F)(F)F)CC1)OCOC(=O)C(C)(C)C (stereo partly drawn) [Compound 48]"
  EC50: "< 1 µM"
- Compound: "CCOP(=O)(CN1CCN(CC[C@H](CSc2ccccc2)Nc2ccc(S(=O)(=O)NC(=O)c3ccc(N4CCN(CC5=C(c6ccc(Cl)cc6)CCC(C)(C)C5)CC4)cc3)cc2S(=O)(=O)C(F)(F)F)CC1)OCC [Compound 6]"
  EC50: "< 1 µM"
- Compound: "CC1(C)CCC(c2ccc(Cl)cc2)=C(CN2CCN(c3ccc(C(=O)NS(=O)(=O)c4ccc(N[C@H](CCN5CCN(CCCP(=O)(OCOC(=O)C(C)(C)C)OCOC(=O)C(C)(C)C)CC5)CSc5ccccc5)c(S(=O)(=O)C(F)(F)F)c4)cc3)CC2)C1 [Compound 40]"
  EC50: "> 10 µM"
- Compound: "CC1(C)CCC(c2ccc(Cl)cc2)=C(CN2CCN(c3ccc(C(=O)NS(=O)(=O)c4ccc(N[C@H](CCN5CCN(CCCP(=O)(Oc6ccccc6)Oc6ccccc6)CC5)CSc5ccccc5)c(S(=O)(=O)C(F)(F)F)c4)cc3)CC2)C1 [Compound 25]"
  EC50: "> 10 µM"
- Compound: "CC(C)OP(=O)(CCCN1CCN(CC[C@H](CSc2ccccc2)Nc2ccc(S(=O)(=O)NC(=O)c3ccc(N4CCN(CC5=C(c6ccc(Cl)cc6)CCC(C)(C)C5)CC4)cc3)cc2S(=O)(=O)C(F)(F)F)CC1)OC(C)C [Compound 27]"
  EC50: "> 10 µM"

---

Entries and their pEC50
Tested on: IMR-90 SnC (irradiated senescent IMR90 cells)
Measurement protocol: Senolysis assay (CellTiter-Glo viability)
Assay type: cell-based, human
Details: Homo sapiens, IMR-90, light or radiation study, 72 h; X-ray irradiated senescent IMR90 cells, viability three days after compound addition
pEC50: −log10 of the molar value.

- Compound: "CCOP(=O)(O)CCCN1CCN(CC[C@H](CSc2ccccc2)Nc2ccc(S(=O)(=O)NC(=O)c3ccc(N4CCN(CC5=C(c6ccc(Cl)cc6)CCC(C)(C)C5)CC4)cc3)cc2S(=O)(=O)C(F)(F)F)CC1"
  pEC50: "< 5.00"
- Compound: "CCOP(=O)(CN1CCN(CC[C@H](CSc2ccccc2)Nc2ccc(S(=O)(=O)NC(=O)c3ccc(N4CCN(CC5=C(c6ccc(Cl)cc6)CCC(C)(C)C5)CC4)cc3)cc2S(=O)(=O)C(F)(F)F)CC1)OCOC(=O)C(C)(C)C (stereo partly shown)"
  pEC50: "> 6.00"
- Compound: "CC1(C)CCC(c2ccc(Cl)cc2)=C(CN2CCN(c3ccc(C(=O)NS(=O)(=O)c4ccc(N[C@H](CCN5CCN(CCP(=O)(O)OCOC(=O)C(C)(C)C)CC5)CSc5ccccc5)c(S(=O)(=O)C(F)(F)F)c4)cc3)CC2)C1"
  pEC50: "< 5.00"
- Compound: "CCOP(=O)(CCCN1CCN(CC[C@H](CSc2ccccc2)Nc2ccc(S(=O)(=O)NC(=O)c3ccc(N4CCN(CC5=C(c6ccc(Cl)cc6)CCC(C)(C)C5)CC4)cc3)cc2S(=O)(=O)C(F)(F)F)CC1)OCC"
  pEC50: "> 6.00"

---

Test system: IMR-90 SnC (irradiated senescent IMR90 cells)
Measurement protocol: Senolysis assay (CellTiter-Glo viability)
Type: cell-based, human
Details: Homo sapiens, IMR-90, light or radiation study, 72 h; X-ray irradiated senescent IMR90 cells, viability three days after compound addition
Entries and their EC50
Quantity measured: EC50

- Molecule: "CCOP(=O)(CCN1CCN(CC[C@H](CSc2ccccc2)Nc2ccc(S(=O)(=O)NC(=O)c3ccc(N4CCN(CC5=C(c6ccc(Cl)cc6)CCC(C)(C)C5)CC4)cc3)cc2S(=O)(=O)C(F)(F)F)CC1)OCOC(=O)C(C)(C)C (some centres unmarked)"
  Quantity measured: "EC50"
  Reported measurement: "1 to 10 µM"
- Molecule: "CCOP(=O)(CN1CCN(CC[C@H](CSc2ccccc2)Nc2ccc(S(=O)(=O)NC(=O)c3ccc(N4CCN(Cc5ccccc5-c5ccc(Cl)cc5)CC4)cc3)cc2S(=O)(=O)C(F)(F)F)CC1)OCOC(=O)OC(C)C (some centres unmarked)"
  Quantity measured: "EC50"
  Reported measurement: "> 10 µM"

---

Tested on: IMR-90 SnC (irradiated senescent IMR90 cells)
Measurement protocol: Senolysis assay (CellTiter-Glo viability)
Format: cell-based, human
Details: Homo sapiens, IMR-90, light or radiation study, 72 h; X-ray irradiated senescent IMR90 cells, viability three days after compound addition
Entries and their EC50
Quantity measured: EC50

- Compound: "CCOP(=O)(O)CN1CCN(CC[C@H](CSc2ccccc2)Nc2ccc(S(=O)(=O)NC(=O)c3ccc(N4CCN(Cc5ccccc5-c5ccc(Cl)cc5)CC4)cc3)cc2S(=O)(=O)C(F)(F)F)CC1"
  Reported measurement: "> 10 µM"
- Compound: "CC1(C)CCC(c2ccc(Cl)cc2)=C(CN2CCN(c3ccc(C(=O)NS(=O)(=O)c4ccc(N[C@H](CCN5CCN(CCP(=O)(O)O)CC5)CSc5ccccc5)c(S(=O)(=O)C(F)(F)F)c4)cc3)CC2)C1"
  Reported measurement: "> 10 µM"
- Compound: "CCOP(=O)(CN1CCN(CC(CSc2ccccc2)Nc2ccc(S(=O)(=O)NC(=O)c3ccc(N4CCN(CC5=C(c6ccc(Cl)cc6)CCC(C)(C)C5)CC4)cc3)cc2S(=O)(=O)C(F)(F)F)CC1)OCC (stereo not drawn)"
  Reported measurement: "> 10 µM"

---

Tgt: BCL-w (Homo sapiens, UniProt Q92843)
Sequence (Q92843 whole entry, species assumed): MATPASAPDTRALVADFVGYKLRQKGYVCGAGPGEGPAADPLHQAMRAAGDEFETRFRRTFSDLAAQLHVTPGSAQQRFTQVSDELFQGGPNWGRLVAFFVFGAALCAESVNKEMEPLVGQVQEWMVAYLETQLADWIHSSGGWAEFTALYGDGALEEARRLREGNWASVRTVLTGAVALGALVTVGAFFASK
pKd: −log10 of the molar value.
Entries and their pKd
Quantity measured: pKd

- Compound: "CC1(C)CCC(c2ccc(Cl)cc2)=C(CN2CCN(c3ccc(C(=O)NS(=O)(=O)c4ccc(N[C@H](CCN5CCN(CCP(=O)(O)O)CC5)CSc5ccccc5)c(S(=O)(=O)C(F)(F)F)c4)cc3)CC2)C1 [Compound 13]"
  Quantity measured: "pKd"
  Reported measurement: "8.00 to 9.00"
- Compound: "COP(=O)(CCCN1CCN(CC[C@H](CSc2ccccc2)Nc2ccc(S(=O)(=O)NC(=O)c3ccc(N4CCN(CC5=C(c6ccc(Cl)cc6)CCC(C)(C)C5)CC4)cc3)cc2S(=O)(=O)C(F)(F)F)CC1)OC [Compound 24]"
  Quantity measured: "pKd"
  Reported measurement: "8.00 to 9.00"
- Compound: "CCOP(=O)(CCN1CCN(CC(CSc2ccccc2)Nc2ccc(S(=O)(=O)NC(=O)c3ccc(N4CCN(CC5=C(c6ccc(Cl)cc6)CCC(C)(C)C5)CC4)cc3)cc2S(=O)(=O)C(F)(F)F)CC1)OCC (centres unmarked) [Compound 35]"
  Quantity measured: "pKd"
  Reported measurement: "< 7.30"
- Compound: "CCOP(=O)(O)CN1CCN(CC[C@H](CSc2ccccc2)Nc2ccc(S(=O)(=O)NC(=O)c3ccc(N4CCN(Cc5ccccc5-c5ccc(Cl)cc5)CC4)cc3)cc2S(=O)(=O)C(F)(F)F)CC1 [Compound 53]"
  Quantity measured: "pKd"
  Reported measurement: "> 9.00"
- Compound: "CCOP(=O)(CN1CCN(CC[C@H](CSc2ccccc2)Nc2ccc(S(=O)(=O)NC(=O)c3ccc(N4CCN(CC5=C(c6ccc(Cl)cc6)CCC(C)(C)C5)CC4)cc3)cc2S(=O)(=O)C(F)(F)F)CC1)OC(C)(C)C (some centres unmarked) [Compound 26]"
  Quantity measured: "pKd"
  Reported measurement: "< 7.30"
- Compound: "CCOP(=O)(CCCN1CCN(CC[C@H](CSc2ccccc2)Nc2ccc(S(=O)(=O)NC(=O)c3ccc(N4CCN(CC5=C(c6ccc(Cl)cc6)CCC(C)(C)C5)CC4)cc3)cc2S(=O)(=O)C(F)(F)F)CC1)OCOC(C)=O (some centres unmarked) [Compound 37]"
  Quantity measured: "pKd"
  Reported measurement: "8.00 to 9.00"
- Compound: "CCOP(=O)(CCN1CCN(CC[C@H](CSc2ccccc2)Nc2ccc(S(=O)(=O)NC(=O)c3ccc(N4CCN(CC5=C(c6ccc(Cl)cc6)CCC(C)(C)C5)CC4)cc3)cc2S(=O)(=O)C(F)(F)F)CC1)OCOC(=O)C(C)(C)C (some centres unmarked) [Compound 38]"
  Quantity measured: "pKd"
  Reported measurement: "7.30 to 8.00"
- Compound: "CCOP(=O)(CCCN1CCN(CC[C@H](CSc2ccccc2)Nc2ccc(S(=O)(=O)NC(=O)c3ccc(N4CCN(CC5=C(c6ccc(Cl)cc6)CCC(C)(C)C5)CC4)cc3)cc2S(=O)(=O)C(F)(F)F)CC1)OCOC(=O)C(C)(C)C (some centres unmarked) [Compound 33]"
  Quantity measured: "pKd"
  Reported measurement: "8.00 to 9.00"
